Hello, the source for this data is patent US20240124465A1, in case you need it.

Target: GSPT1 (Homo sapiens, UniProt P15170)
Construct: endogenous in cells; host or cells: MHH-CALL-4
Sequence (P15170 whole entry): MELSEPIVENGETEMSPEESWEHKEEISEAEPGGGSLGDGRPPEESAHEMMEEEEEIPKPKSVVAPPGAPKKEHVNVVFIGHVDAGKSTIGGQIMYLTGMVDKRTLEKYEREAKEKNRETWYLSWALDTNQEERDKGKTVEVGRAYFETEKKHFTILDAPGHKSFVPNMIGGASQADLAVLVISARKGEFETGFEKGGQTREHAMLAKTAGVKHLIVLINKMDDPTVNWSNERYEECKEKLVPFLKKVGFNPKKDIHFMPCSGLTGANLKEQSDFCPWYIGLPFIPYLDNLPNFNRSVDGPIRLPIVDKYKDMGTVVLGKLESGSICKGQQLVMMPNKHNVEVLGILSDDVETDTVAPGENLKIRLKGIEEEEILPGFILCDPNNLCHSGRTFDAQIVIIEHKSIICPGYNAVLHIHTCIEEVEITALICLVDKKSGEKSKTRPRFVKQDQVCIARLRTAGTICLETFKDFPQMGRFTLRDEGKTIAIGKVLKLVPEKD
Experiment: Western blot assay, GSPT1 neosubstrate degradation
Assay type: cell-based
Details: MHHCALL4; 100 nM, 24 h; MHH-CALL-4 cells; vehicle control = 100%
Procedure: Western blot assay: MHH-CALL-4 Cells were washed twice with ice-cold PBS and lysed in RIPA lysis buffer (Sigma) freshly supplemented with Halt™ Protease Inhibitor Cocktail (ThermoFisher) for 15 minutes on ice. The cell pellet was removed by centrifugation at 13,000 g at 4° C. for 15 minutes. Protein concentration was measured by BCA assay (Thermo Fisher Scientific). Proteins were denatured in NuPAGE LDS 4× sample buffer supplemented with reducing agents (Invitrogen). […]
Exercise: for every item that follows, state its recorded remaining activity at 0.1 µM.
Respond numerically; units are % and should not be typed.

Ask: Any idea what its remaining activity at 0.1 µM is? The compound is CCS(=O)(=O)N1CC(CC#N)(n2cc(-c3nc(Nc4ccc(C(=O)NCC5CCN(c6ccc(C7CCC(=O)NC7=O)cc6)CC5)cc4)nc4[nH]ccc34)cn2)C1 (stereo not drawn)
Result: 101

Ask: Any idea what its remaining activity at 0.1 µM is? The compound is CCS(=O)(=O)N1CC(CC#N)(n2cc(-c3nc(Nc4ccc(C(=O)NCCCCOc5ccc(C6CCC(=O)NC6=O)cc5)cc4)nc4[nH]ccc34)cn2)C1 (stereo not drawn)
Result: 71

Ask: Any idea what its remaining activity at 0.1 µM is? The compound is CCS(=O)(=O)N1CC(CC#N)(n2cc(-c3nc(Nc4ccc(C(=O)NCCNC(=O)COc5ccc(C6CCC(=O)NC6=O)cc5)cc4)nc4[nH]ccc34)cn2)C1 (stereo not drawn)
Result: 110

Ask: Any idea what its remaining activity at 0.1 µM is? The compound is CCS(=O)(=O)N1CC(CC#N)(n2cc(-c3nc(Nc4ccc(C(=O)NCCCNC(=O)COc5ccc(C6CCC(=O)NC6=O)cc5)cc4)nc4[nH]ccc34)cn2)C1 (stereo not drawn)
Result: 117

Ask: Any idea what its remaining activity at 0.1 µM is? The compound is CCS(=O)(=O)N1CC(CC#N)(n2cc(-c3nc(Nc4ccc(C(=O)NCCN5CCC(c6ccc7c(c6)CN(C6CCC(=O)NC6=O)C7=O)CC5)cc4)nc4[nH]ccc34)cn2)C1 (stereo not drawn)
Result: 116

Ask: Any idea what its remaining activity at 0.1 µM is? The compound is CCCn1cc(-c2nc(Nc3ccc(C(=O)NCCCCOc4ccc(C5CCC(=O)NC5=O)cc4)cc3)nc3[nH]ccc23)cn1 (stereo not drawn)
Result: 37

---

Exercise: for every item that follows, state its recorded AUC.
System: MHH-CALL-4 cells
Assay: Cytotoxicity assay (resazurin, 72 hours)
Type: cell-based
Parameters: unit not given beside the values
Conditions: area under the dose-response curve
Give the value as a plain number.

Ask: Find the measured AUC: item CCS(=O)(=O)N1CC(CC#N)(n2cc(-c3nc(Nc4ccc(C(=O)NCCCN5CCC6(CCN(c7ccc(C8CCC(=O)NC8=O)cc7)CC6)C5)cc4)nc4[nH]ccc34)cn2)C1 (stereo not drawn) [Compound 56] , target or system MHH-CALL-4 cells.
Result: 172

Ask: Find the measured AUC: item CCS(=O)(=O)N1CC(CC#N)(n2cc(-c3nc(Nc4ccc(C(=O)N5CC6(C5)CN(c5ccc(C7CCC(=O)NC7=O)cc5)C6)cc4)nc4[nH]ccc34)cn2)C1 (stereo not drawn) [Compound 53] , target or system MHH-CALL-4 cells.
Result: 142

Ask: Find the measured AUC: item CCS(=O)(=O)N1CC(CC#N)(n2cc(-c3nc(Nc4ccc(C(=O)NCCCCOc5ccc(C6CCC(=O)NC6=O)cc5)cc4)nc4[nH]ccc34)cn2)C1 (stereo not drawn) [Compound 5] , target or system MHH-CALL-4 cells.
Result: 124

Ask: Find the measured AUC: item CCS(=O)(=O)N1CC(CC#N)(n2cc(-c3nc(Nc4ccc(C(=O)NCCCN5CC6CC5CN6c5ccc(C6CCC(=O)NC6=O)cc5)cc4)nc4[nH]ccc34)cn2)C1 (stereo not drawn) [Compound 48] , target or system MHH-CALL-4 cells.
Result: 80

Ask: Find the measured AUC: item CCS(=O)(=O)C1CC(CC#N)(n2cc(-c3nc(Nc4ccc(C(=O)NC5CCN(c6cccc7c6C(=O)N(C6CCC(=O)NC6=O)C7=O)CC5)cc4)nc4[nH]ccc34)cn2)C1 (stereo not drawn) [Compound 30] , target or system MHH-CALL-4 cells.
Result: 215.00

Ask: Find the measured AUC: item CCS(=O)(=O)N1CC(CC#N)(n2cc(-c3nc(Nc4ccc(C(=O)NCCCN5CCN(c6cccc(C7CCC(=O)NC7=O)c6)CC5)cc4)nc4[nH]ccc34)cn2)C1 (stereo not drawn) [Compound 42] , target or system MHH-CALL-4 cells.
Result: 139

Ask: Find the measured AUC: item CCS(=O)(=O)N1CC(CC#N)(n2cc(-c3nc(Nc4ccc(C(=O)NCCCCCNc5ccc(C6CCC(=O)NC6=O)cc5)cc4)nc4[nH]ccc34)cn2)C1 (stereo not drawn) [Compound 7] , target or system MHH-CALL-4 cells.
Result: 248

Ask: Find the measured AUC: item CCS(=O)(=O)N1CC(CC#N)(n2cc(-c3nc(Nc4ccc(C(=O)NCCCCNc5ccc(C6CCC(=O)NC6=O)cc5)cc4)nc4[nH]ccc34)cn2)C1 (stereo not drawn) [Compound 13] , target or system MHH-CALL-4 cells.
Result: 93

Ask: Find the measured AUC: item CCS(=O)(=O)N1CC(CC#N)(n2cc(-c3nc(Nc4ccc(C(=O)NCCCN5CCC(c6ccc7c(c6)CN(C6CCC(=O)NC6=O)C7=O)CC5)cc4)nc4[nH]ccc34)cn2)C1 (stereo not drawn) [Compound 28] , target or system MHH-CALL-4 cells.
Result: 223.00

Ask: Find the measured AUC: item CCS(=O)(=O)N1CC(CC#N)(n2cc(-c3nc(Nc4ccc(C(=O)NCCCCCNC(=O)COc5ccc(C6CCC(=O)NC6=O)cc5)cc4)nc4[nH]ccc34)cn2)C1 (stereo not drawn) [Compound 16] , target or system MHH-CALL-4 cells.
Result: 136

Ask: Find the measured AUC: item N#CC[C@@H](C1CCCC1)n1cc(-c2nc(Nc3ccc(C(=O)NCCCN4CCN(c5ccc6c(c5)C(=O)N(C5CCC(=O)NC5=O)C6=O)CC4)cc3)nc3[nH]ccc23)cn1 (stereo partly drawn) [Compound 23] , target or system MHH-CALL-4 cells.
Result: 79

Ask: Find the measured AUC: item CCS(=O)(=O)N1CC(CC#N)(n2cc(-c3nc(Nc4ccc(C(=O)NCCCCCCNc5cccc(C6CCC(=O)NC6=O)c5)cc4)nc4[nH]ccc34)cn2)C1 (stereo not drawn) [Compound 3] , target or system MHH-CALL-4 cells.
Result: 248

Ask: Find the measured AUC: item CCS(=O)(=O)N1CC(CC#N)(n2cc(-c3nc(Nc4ccc(C(=O)NCCN5CCC(c6ccc7c(c6)CN(C6CCC(=O)NC6=O)C7=O)CC5)cc4)nc4[nH]ccc34)cn2)C1 (stereo not drawn) [Compound 35] , target or system MHH-CALL-4 cells.
Result: 223

Ask: Find the measured AUC: item CCS(=O)(=O)N1CC(CC#N)(n2cc(-c3nc(Nc4ccc(C(=O)NCC5CCN(c6ccc7c(c6)C(=O)N(C6CCC(=O)NC6=O)C7=O)CC5)cc4)nc4[nH]ccc34)cn2)C1 (stereo not drawn) [Compound 31] , target or system MHH-CALL-4 cells.
Result: 260

Ask: Find the measured AUC: item CCCn1cc(-c2nc(Nc3ccc(C(=O)NCCN4CCN(c5cccc6c5C(=O)N(C5CCC(=O)NC5=O)C6=O)CC4)cc3)nc3[nH]ccc23)cn1 (stereo not drawn) [Compound 24] , target or system MHH-CALL-4 cells.
Result: 208

Ask: Find the measured AUC: item CCCn1cc(-c2nc(Nc3ccc(C(=O)NCCN4CCN(c5ccc6c(c5)C(=O)N(C5CCC(=O)NC5=O)C6=O)CC4)cc3)nc3[nH]ccc23)cn1 (stereo not drawn) [Compound 39] , target or system MHH-CALL-4 cells.
Result: 221

Ask: Find the measured AUC: item CCS(=O)(=O)C1CC(CC#N)(n2cc(-c3nc(Nc4ccc(C(=O)N5CCN(c6ccc7c(c6)C(=O)N(C6CCC(=O)NC6=O)C7=O)CC5)cc4)nc4[nH]ccc34)cn2)C1 (stereo not drawn) [Compound 21] , target or system MHH-CALL-4 cells.
Result: 118

Ask: Find the measured AUC: item CCS(=O)(=O)N1CC(CC#N)(n2cc(-c3nc(Nc4ccc(C(=O)NCCCCNc5cccc(C6CCC(=O)NC6=O)c5)cc4)nc4[nH]ccc34)cn2)C1 (stereo not drawn) [Compound 4] , target or system MHH-CALL-4 cells.
Result: 120

Ask: Find the measured AUC: item CCS(=O)(=O)N1CC(CC#N)(n2cc(-c3nc(Nc4ccc(C(=O)NCCN5CCN(c6cccc(C7CCC(=O)NC7=O)c6)CC5)cc4)nc4[nH]ccc34)cn2)C1 (stereo not drawn) [Compound 40] , target or system MHH-CALL-4 cells.
Result: 139

Ask: Find the measured AUC: item CCS(=O)(=O)C1CC(CC#N)(n2cc(-c3nc(Nc4ccc(C(=O)N5CCC(c6ccc7c(c6)C(=O)N(C6CCC(=O)NC6=O)C7=O)CC5)cc4)nc4[nH]ccc34)cn2)C1 (stereo not drawn) [Compound 27] , target or system MHH-CALL-4 cells.
Result: 143

Ask: Find the measured AUC: item CCS(=O)(=O)N1CC(CC#N)(n2cc(-c3nc(Nc4ccc(C(=O)NCCOCCOCCOc5ccc(C6CCC(=O)NC6=O)cc5)cc4)nc4[nH]ccc34)cn2)C1 (stereo not drawn) [Compound 12] , target or system MHH-CALL-4 cells.
Result: 116
